Experiment Notes: folding enthalpy; higher = less favourable; fluorescence melt of hairpins on a sequencing array, two-state fit
Setup Conditions: sodium 0.088 M
Field: folding enthalpy. Provide a value for each of the sequences that follow.

Record excerpt, results attached:
[[record]]
residues = "GTGGCCGAAAGGCTCCAC ((((((....)))..)))"
endpoint_value = "-11.4 kcal/mol"

[[record]]
residues = "GTAATGGGAAACCATCAC ((.((((....)))).))"
endpoint_value = "-17.7 kcal/mol"

[[record]]
residues = "GTGCGTGCGAAAGCACAC (((..(((....))))))"
endpoint_value = "-9.15 kcal/mol"

[[record]]
residues = "GCCCTGTCGAAAGACGGC (((..(((....))))))"
endpoint_value = "-15.4 kcal/mol"

[[record]]
residues = "GATCGCCCACGCGATC ((((((....))))))"
endpoint_value = "-35 kcal/mol"


Give measured folding enthalpy for every item shown.
1. GATCCGTAGACGGATC ((((((....))))))
2. GGGGGCGAAAGCCATCCC ((((((....)))..)))
3. GTTGCACGAAAGTGGAAC (((.(((....))).)))
4. GGGAAGGGAAACCTTCTC (.(((((....))))).)
5. GCGTCTCCACGC ((((....))))
6. GTGTTCCGAAAGGACCAC (((.(((....))).)))

Return:
1: -42.9 kcal/mol; 2: -13.5 kcal/mol; 3: -35.5 kcal/mol; 4: -23.8 kcal/mol; 5: -21.4 kcal/mol; 6: -38.4 kcal/mol

Enquiry: May I ask what folding enthalpy has been recorded for GATCCGACAACGGATC ((((((....)))))) ?
Return: -35 kcal/mol

----------
Field: Tm. Provide a value for each of the sequences that follow.
Experiment Notes: melting temperature; fluorescence melt of hairpins on a sequencing array, two-state fit, raised by 9.35 °C to match UV melts
Setup Conditions: sodium 0.088 M
Give bare numbers, in °C.

Give measured Tm for every item shown.
1. GACTGTGGAAACACAGCC (.(((((....))))).)
2. GACATCCGAAAGGAAGTC (((.(((....))).)))
3. GATCCATTTCTGGATC ((((((....))))))
4. GATTCCGAAAGGACAATC ((((((....)))..)))
5. GCCCGCGAAAGCGGTGGC ((((((....)))..)))

Return:
1. 43.7
2. 48.8
3. 51
4. 25.6
5. 57.7

Give measured Tm for every item shown.
1. GAAACTGGAAACAGTCTC ((.((((....)))).))
2. GCCATGCGAAAGCTTTGC ((.(.((....)).).))

Return:
1. 28
2. 36.1

Give measured Tm for every item shown.
1. GATCACGACGTGATC ((((((...))))))
2. GGCGCCGAAAGGCTTGCC ((((((....)))..)))
3. GACTATGGAAACATGGTC (((.(((....))).)))
4. GTGTTGGCGAAAGCCCAC (((..(((....))))))
5. GATCTGGGCACAGATC ((((((....))))))
6. GCAGCGCGAAAGCACAGC ((.(.((....)).).))

Return:
1. 64.6
2. 53.4
3. 45.4
4. 47
5. 59.3
6. 43.8

Just for reference, the array DNA melting data of Ke et al. (doi:10.1101/2024.01.08.574731) is where these values come from.
